# target under test: human glucose-6-phosphate transporter (G6PT) (Homo sapiens, UniProt O43826, W138F)
# Sequence (O43826 whole entry W138F): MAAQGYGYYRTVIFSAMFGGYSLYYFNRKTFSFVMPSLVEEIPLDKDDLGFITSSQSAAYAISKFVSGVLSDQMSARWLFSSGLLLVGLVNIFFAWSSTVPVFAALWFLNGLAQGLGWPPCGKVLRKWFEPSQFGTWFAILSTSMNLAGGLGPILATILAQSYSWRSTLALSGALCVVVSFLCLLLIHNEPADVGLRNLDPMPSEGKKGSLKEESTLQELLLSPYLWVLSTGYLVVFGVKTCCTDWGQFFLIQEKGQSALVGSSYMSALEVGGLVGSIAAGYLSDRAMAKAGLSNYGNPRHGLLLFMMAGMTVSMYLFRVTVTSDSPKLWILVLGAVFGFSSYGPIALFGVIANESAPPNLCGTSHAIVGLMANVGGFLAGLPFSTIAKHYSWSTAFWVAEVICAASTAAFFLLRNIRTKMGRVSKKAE
# Sequence (P35575 whole entry partner): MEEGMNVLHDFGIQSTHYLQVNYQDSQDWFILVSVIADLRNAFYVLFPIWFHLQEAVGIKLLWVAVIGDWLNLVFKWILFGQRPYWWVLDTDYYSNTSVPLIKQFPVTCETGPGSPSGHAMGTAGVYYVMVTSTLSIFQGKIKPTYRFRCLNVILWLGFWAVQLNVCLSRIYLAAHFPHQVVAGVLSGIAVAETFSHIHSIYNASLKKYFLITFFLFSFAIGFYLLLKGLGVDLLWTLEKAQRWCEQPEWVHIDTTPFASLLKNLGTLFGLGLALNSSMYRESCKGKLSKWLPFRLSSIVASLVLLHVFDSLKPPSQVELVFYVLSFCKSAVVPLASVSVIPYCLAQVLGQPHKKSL
measurement type: IC50 (µM)

• O=C(/C=C/c1ccc(O)c(O)c1)O[C@@H]1C[C@](O)(C(=O)O)C[C@@H](O)[C@H]1O = 523
